System: BJAB
Assay: Cytotoxicity against human BJAB cells assessed as necrosis at AC50 after 72 hrs by LDH release assay
Type: cell-based
Reported metric: Activity

Compound	Reported metric	Result
COc1cc2c(c(OC)c1OC)-c1cc3c(ccn3C)cc1C(OC(C)=O)CC2 (racemic)	Activity	0%
COc1cc2c(c(OC)c1OC)-c1cc3c(ccn3C)cc1C(N)CC2 (racemic)	Activity	29%
COc1cc2c(c(OC)c1OC)-c1cc3c(ccn3C)cc1C(O)CC2 (racemic)	Activity	7%
COc1cc2c(c(OC)c1OC)-c1cc3c(ccn3C)cc1C(=O)CC2	Activity	4%

API: the following record is the query input.
Activity recorded for this compound, COc1cc2c(c(OC)c1OC)-c1cc3c(ccn3C)cc1C(N=[N+]=[N-])CC2 (racemic) , is 1%

* * *

Assay: Inhibition of sheep tubulin polymerization by fluorescence based assay
Parameters: species or system Ovis aries
Provide the recorded IC50 for the entries that follow.
One number for each entry, in nM.

Some entries whose results are on file:
Compound	Numeric result
COc1cc2c(c(OC)c1OC)-c1cc3c(ccn3C)cc1C(OC(C)=O)CC2 (racemic)	125
COc1ccc(/C=C\c2cc(OC)c(OC)c(OC)c2)cc1O [COMBRETASTATIN A4]	90
COc1cc2c(c(OC)c1OC)-c1cc3ccn(C)c3cc1C(O)CC2 (racemic)	264
COc1cc2c(c(OC)c1OC)-c1ccc3c(ccn3C)c1C(O)CC2 (racemic)	228

API: the following record is the query input.
IC50 recorded for this compound, COc1cc2c(c(OC)c1OC)-c1ccc(OC)c(=O)cc1[C@@H](NC(C)=O)CC2 [COLCHICINE] , is 375

* * *

Tested on: BJAB
Experiment: Antiproliferative activity against human BJAB cells after 24 hrs by CASY cell counting method
Type: functional, cell-based
Reported metric: IC50 (nM)
One number for each entry, in nM.

Molecule	Unit label	IC50
COc1cc2c(c(OC)c1OC)-c1cc3c(ccn3C)cc1C(N)CC2 (racemic)	nM	500
COc1cc2c(c(OC)c1OC)-c1cc3c(ccn3C)cc1C(OC(C)=O)CC2 (racemic)	nM	10
COc1cc2c(c(OC)c1OC)-c1cc3c(ccn3C)cc1C(N=[N+]=[N-])CC2 (racemic)	nM	50000
COc1cc2c(c(OC)c1OC)-c1cc3c(ccn3C)cc1C(O)CC2 (racemic)	nM	1
COc1cc2c(c(OC)c1OC)-c1cc3c(ccn3C)cc1C(=O)CC2	nM	10

Param item: COc1cc2c(c(OC)c1OC)-c1ccc(OC)c(=O)cc1[C@@H](NC(C)=O)CC2 ; param system: BJAB; output IC50: 20

* * *

System: BJAB
Test: Induction of apoptosis in human BJAB cells assessed as DNA fragmentation after 72 hrs by flow cytometry
Format: functional, cell-based
Reported metric: Activity

Some entries whose results are on file:
Compound	Result
COc1cc2c(c(OC)c1OC)-c1cc3c(ccn3C)cc1C(O)CC2 (racemic)	Dose-dependent effect
COc1cc2c(c(OC)c1OC)-c1cc3c(ccn3C)cc1C(N)CC2 (racemic)	Dose-dependent effect
COc1cc2c(c(OC)c1OC)-c1cc3c(ccn3C)cc1C(N=[N+]=[N-])CC2 (racemic)	Dose-dependent effect
COc1cc2c(c(OC)c1OC)-c1cc3c(ccn3C)cc1C(OC(C)=O)CC2 (racemic)	Dose-dependent effect
COc1cc2c(c(OC)c1OC)-c1ccc(OC)c(=O)cc1[C@@H](NC(C)=O)CC2	Dose-dependent effect

# batch size: 2; output Activity per entry
1. COc1cc2c(c(OC)c1OC)-c1cc3c(ccn3C)cc1C(NC(C)=O)CC2 (racemic)
2. COc1cc2c(c(OC)c1OC)-c1cc3c(ccn3C)cc1C(=O)CC2

1. Dose-dependent effect
2. Dose-dependent effect
